Tested on: TK-10 renal
Experiment: NCI tumour cell line growth inhibition, 48 h
Below, each entry is listed with its recorded GI50.
Metric: GI50

compound=CCCCCCCCSC1=CC(=O)c2nc3ccccc3c3ccnc1c23 metric=GI50 result="> 100 µM"
compound=CC(=O)[O][Hg][c]1c(N)c(C)cc(C)c1F metric=GI50 result="1.87 µM"
compound=CN(C)CCCNC1=C(Cl)C(=O)c2ccccc2C1=O metric=GI50 result="15.4 µM"
compound=CCOC(=O)Nc1nc2ccc(OCC)cc2s1 metric=GI50 result="> 100 µM"
compound=O=C1NNC(=O)c2ccccc2SSc2ccccc2C(=O)NNC(=O)c2ccccc2SSc2ccccc21 metric=GI50 result="70.9 µM"
compound="CC(C)c1ccc(C(C)C(=O)N(CC2=C(C(C)c3ccccn3)c3ccccc3C2)C(C)C)cc1 (stereo unspecified)" metric=GI50 result="4.81 µM"
compound=Clc1cccc(Cc2cn3cc(-c4ccccc4)nc3s2)c1Cl metric=GI50 result="26.1 µM"
compound=CCCCCCCC(=O)SCC/C=C/[C@@H]1CC(=O)NCc2cccc(n2)C2=N[C@@](C)(CS2)C(=O)N[C@@H](C(C)C)C(=O)N1 metric=GI50 result="1.09 µM"
compound=C[C@@H](CS(C)(=O)=O)Nc1ncc2cc(Oc3ccc(F)cc3F)c(=O)n(C)c2n1 metric=GI50 result="> 25 µM"
compound=COc1ccc2c(c1)C(=O)/C(=C/c1ccc(OCC(=O)Nc3nccs3)cc1)O2 metric=GI50 result="3.39 µM"
compound=O=C(Nc1ccc(I)cc1)c1cc([N+](=O)[O-])ccc1O metric=GI50 result="9.9 µM"
compound="CC1=C(C(=O)Nc2ccc(F)c(Cl)c2)C(c2ccc(Cl)cc2)NC(=O)N1 (stereo unspecified)" metric=GI50 result="7.4 µM"
compound="C=C(CNCCO)[C@@H]1CC[C@]2(CO)CC[C@]3(C)[C@H](CC[C@@H]4[C@@]5(C)CCC(N)C(C)(C)[C@@H]5CC[C@]43C)[C@@H]12 (stereo partly specified)" metric=GI50 result="2.54 µM"
compound=O=C(CN1CCN(c2cc3c(cc2F)c(=O)c(C(=O)N/N=C/c2ccccc2O)cn3C2CC2)CC1)N/N=C\c1ccccc1O metric=GI50 result="0.77 µM"
compound=O=C1/C(=C/c2ccc([N+](=O)[O-])cc2)COc2ccc(O)c(O)c21 metric=GI50 result="1.68 µM"
compound="COC(=O)Nc1nc2ccc(S(=O)c3ccccc3)cc2[nH]1 (stereo unspecified)" metric=GI50 result="12.4 µM"

###

Below, each entry is listed with its recorded TGI.
Tested on: TK-10 renal
Test: NCI tumour cell line growth inhibition, 48 h
Metric: TGI

molecule=Cc1cccc2oc3c(CC(=O)O)cccc3c(=O)c12 target_or_test_system="TK-10 renal" result="> 100 µM"
molecule=C[n+]1c2ccccc2c(NCC(=O)O)c2ccccc21 target_or_test_system="TK-10 renal" result="> 100 µM"
molecule="COc1cc(NC(C)c2ccc3c(c2)OCCO3)cc(OC)c1OC (stereo not given)" target_or_test_system="TK-10 renal" result="> 100 µM"
molecule="C/C=C/C(C#N)(/C=C/c1ccccc1)OP1(=O)OC(c2ccccc2)C(C)N1C (stereo not given)" target_or_test_system="TK-10 renal" result="37.8 µM"
molecule="Cc1c2n(c(=O)[nH]c1=O)C1OC(CO)C(O2)C1N=[N+]=[N-] (stereo not given)" target_or_test_system="TK-10 renal" result="> 100 µM"
molecule="CC(=O)OC(C)C(=O)C1c2cccc(O)c2C(=O)c2c(O)cc(C)cc21 (stereo not given)" target_or_test_system="TK-10 renal" result="2.88 µM"
molecule=COc1cc2c(cc1OC)[C@@H]1[C@H](C#N)C(=O)C(C)(C)N1CC2 target_or_test_system="TK-10 renal" result="> 100 µM"
molecule=Cc1c(-c2ccc(O)cc2)n(CCCCCCNCCOC(=O)NCCCc2ccc(N(CCCl)CCCl)cc2)c2ccc(O)cc12 target_or_test_system="TK-10 renal" result="6.06 µM"
molecule=COc1ccc(-c2cc(-c3ccc(Nc4nc(Nc5ccccc5)nc(Nc5ccc(Cl)cc5)n4)cc3)nc(N)c2C#N)cc1 target_or_test_system="TK-10 renal" result="1.79 µM"
molecule=CSc1ccccc1C#C/C=C\C#Cc1ccccc1N1CCCC1=O target_or_test_system="TK-10 renal" result="> 50 µM"

###

System: MDA-N
Experiment: NCI tumour cell line growth inhibition, 48 h
Metric: TGI

molecule=Nn1c(CCCCCCCCc2nnc(COc3ccc(Cl)cc3Cl)n2N)nnc1COc1ccc(Cl)cc1Cl target_or_test_system=MDA-N metric=TGI result="> 100 µM"
molecule=Cc1ccc(Cc2n[nH]c(=O)[nH]2)cc1 target_or_test_system=MDA-N metric=TGI result="> 100 µM"
molecule=S=C(N1CCN(c2ccc(Cl)c(Cl)c2)CC1)N1CCN(c2ccc(Cl)c(Cl)c2)CC1 target_or_test_system=MDA-N metric=TGI result="23.8 µM"
molecule=CCOC(=O)c1c(SC(=O)c2ccc(C(C)(C)C)cc2)n(-c2ccccc2)c(=S)n(-c2ccccc2)c1=O target_or_test_system=MDA-N metric=TGI result="> 100 µM"
molecule=Nc1ncc(Br)c(NCC2(CO)CCC2)n1 target_or_test_system=MDA-N metric=TGI result="> 100 µM"
molecule=Cc1ccc(N=N/C(=N/NC(=O)c2cc(Cl)ccc2O)c2ccc(N(CCC#N)CCC#N)cc2C)cc1 target_or_test_system=MDA-N metric=TGI result="> 100 µM"
molecule=CC[C@@]12CCCN3CC[C@]4(c5cccc(OC)c5N(C(C)=O)[C@@H]4CC1)[C@H]32 target_or_test_system=MDA-N metric=TGI result="> 100 µM"
molecule=C=C(C)[C@@H]1CCC2=C[C@@H](OC2=O)[C@@H](C(=C)C)C2=CC(C(=O)O)=C(C1)O2 target_or_test_system=MDA-N metric=TGI result="> 100 µM"
molecule=CSCCCN(CCCSC)CCCSC target_or_test_system=MDA-N metric=TGI result="> 100 µM"
molecule="NC1c2c(Br)sc(N3CCCC3)c2C(=O)C1O (stereo unspecified)" target_or_test_system=MDA-N metric=TGI result="> 50 µM"
molecule=O=c1c2cccnc2n2n1Cc1ccccc1C2 target_or_test_system=MDA-N metric=TGI result="> 100 µM"

###

Below, each entry is listed with its recorded TGI.
System: U251 CNS
Test: NCI tumour cell line growth inhibition, 48 h
Where a SMILES comes first, the peptide text is derived from it. [ ]: non-standard residue; d: D form. The star is where a group is joined. Boc = CC(C)(C)OC(=O)*; Lac = C[CH](O)C(=O)O; OBn = c1ccc(CO*)cc1
Metric: TGI

compound=O=C(CN1CCN(c2cc3c(cc2F)c(=O)c(C(=O)N/N=C/c2ccccc2O)cn3C2CC2)CC1)N/N=C\c1ccccc1O metric=TGI result="> 100 µM"
compound=CN1Cc2ccccc2S(=O)(=O)n2cccc2C1=O metric=TGI result="> 100 µM"
compound="CC(OC(=O)C(Cc1ccccc1)NC(=O)C(Cc1ccccc1)NC(=O)OC(C)(C)C)C(=O)OCc1ccccc1 (stereo not drawn) (Boc-Phe-Phe-[Lac]-OBn; configuration not given here)" metric=TGI result="> 100 µM"
compound="COc1c2c(cc3c1C(=O)c1c(O)cccc1C3=O)CC(O)CC2 (centres undefined)" metric=TGI result="> 100 µM"
compound=O=c1c2cccnc2n2n1Cc1ccccc1C2 metric=TGI result="> 100 µM"
compound=Cc1ccc(-c2n[nH]c(Cc3nc(-c4ccc(C)cc4)n[nH]3)n2)cc1 metric=TGI result="33.8 µM"
compound=O=C1N(C2CCCCC2)C(=O)N1C1CCCCC1 metric=TGI result="18.7 µM"
compound=CC(C)(C)c1cc(C(=O)/C=C/c2c(Cl)cccc2Cl)cc(C(C)(C)C)c1O metric=TGI result="24.5 µM"
compound=O=C(OCc1ccccc1)N(CCCCN(CCCNC(=O)C(F)(F)F)C(=O)OCc1ccccc1)CCCNC(=O)C(F)(F)F metric=TGI result="> 100 µM"

###

Test system: MCF7 breast
Assay: NCI tumour cell line growth inhibition, 48 h
Metric: TGI (µM)

compound="COC1(c2ccc(Cl)cc2)SC=C(C)n2c1noc2=O (stereo not given)" inequality_sign=> result_number=100
compound="CN(CC(=O)N1CC(CCl)c2ccc([N+](=O)[O-])cc21)CC(=O)N1CC(CCl)c2ccc([N+](=O)[O-])cc21 (stereo not given)" inequality_sign=> result_number=100
compound=Fc1ccc(Nc2ncnc3ccc(-c4cnc5[nH]ccc5c4)cc23)cc1Cl inequality_sign=> result_number=38
compound=NC(=O)C(=CNC(N)=S)C(N)=O inequality_sign=> result_number=100
compound="CC(C)c1ccc(C(C)C(=O)N(CC2=C(C(C)c3ccccn3)c3ccccc3C2)C(C)C)cc1 (stereo not given)" inequality_sign== result_number=11.4
compound=CCCCCCCCSC1=CC(=O)c2nc3ccccc3c3ccnc1c23 inequality_sign== result_number=57.4
compound=COc1cc(/C=C/c2cc(/C=C/c3ccc(O)c(OC)c3)n(C(=O)Nc3ccc(F)cc3)n2)ccc1O inequality_sign== result_number=7.66
compound=CC1=CC(=O)[C@@H](O)[C@]2(C)[C@H]3[C@@]4(O)OC[C@]35[C@H]([C@@H](C)[C@H]4O)[C@@H](OC(=O)C(C)(C)CO)C(=O)O[C@@H]5C[C@@H]12 inequality_sign=> result_number=100
compound="O=c1n(CC2CO2)c(=O)n(CC2CO2)n1CC1CO1 (stereo not given)" inequality_sign=> result_number=100
compound=COc1c2ccoc2c(/C=C/C=O)c2oc(-c3ccccc3)cc(=O)c12 inequality_sign== result_number=58.3
compound="COc1cc(NC(C)c2ccc3c(c2)OCCO3)cc(OC)c1OC (stereo not given)" inequality_sign=> result_number=100
compound="CC1OC(OC2C(O[C@H]3CC[C@@H]4C(=CC[C@@H]5[C@@]4(C)C(=O)C[C@]4(C)[C@@H]([C@H](C)CC[C@@H](O)C(C)(C)O)CC[C@@]54C)C3(C)C)OC(CO)C(O)C2O)C(O)C(O)C1O (stereo not given in full)" inequality_sign=> result_number=100
compound=COc1cc(C(=O)/C=C/c2sc(Cl)nc2Cl)cc(OC)c1OC inequality_sign== result_number=3.68
compound=N#CC(C#N)=C1C(=Cc2ccc(OCCCCCCCCCCSSCCCCCCCCCCOc3ccc(C=C4C(=C(C#N)C#N)c5ccccc5C4=C(C#N)C#N)cc3)cc2)C(=C(C#N)C#N)c2ccccc21 inequality_sign== result_number=48
compound=COc1cc2nc(C)nc(N[C@H](C)c3cc(N)cc(C(F)(F)F)c3)c2cc1O[C@H]1CCOC1 inequality_sign== result_number=31.3
